# Test system: LOC_OS01G14860-cb001;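 note: purified Escherichia coli-expressed rice kinase domain construct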
# measurement_notes: thermal shift delta Tm vs DMSO control; higher = stronger stabilization (binding)
# applied_conditions: 12.5 µM; protein concentration 2 µM
Measured thermal shift delta Tm, listed per entry.
reported_metric: thermal shift delta Tm (°C)

# mol_smiles, reported_metric, value_measured
rows = [
    ("Cn1cc(-c2ccc3ncc(Cc4ccc5ncccc5c4)n3n2)cn1", "thermal shift delta Tm", 0.23),
    ("c1nc2c(NC3CCCCC3)nc(Nc3ccc(N4CCOCC4)cc3)nc2[nH]1", "thermal shift delta Tm", 2.02),
    ("CCc1cncnc1N1CCN(Cc2nc3ccc(C(F)(F)F)cc3[nH]2)CC1", "thermal shift delta Tm", 0.3),
    ("Oc1c(F)cc(-c2cnccc2-c2ccc(N3CCOCC3)cc2)cc1F", "thermal shift delta Tm", 0.2),
    ("Nc1nc2cc(-c3ccc4ncc(C(=O)N5CCOCC5)n4c3)ccc2o1", "thermal shift delta Tm", 1.16),
]

The measured values listed here are drawn from the supplement of paper PMC9694430.
